target: GRK5 (Homo sapiens)
Sequence (P34947 whole entry): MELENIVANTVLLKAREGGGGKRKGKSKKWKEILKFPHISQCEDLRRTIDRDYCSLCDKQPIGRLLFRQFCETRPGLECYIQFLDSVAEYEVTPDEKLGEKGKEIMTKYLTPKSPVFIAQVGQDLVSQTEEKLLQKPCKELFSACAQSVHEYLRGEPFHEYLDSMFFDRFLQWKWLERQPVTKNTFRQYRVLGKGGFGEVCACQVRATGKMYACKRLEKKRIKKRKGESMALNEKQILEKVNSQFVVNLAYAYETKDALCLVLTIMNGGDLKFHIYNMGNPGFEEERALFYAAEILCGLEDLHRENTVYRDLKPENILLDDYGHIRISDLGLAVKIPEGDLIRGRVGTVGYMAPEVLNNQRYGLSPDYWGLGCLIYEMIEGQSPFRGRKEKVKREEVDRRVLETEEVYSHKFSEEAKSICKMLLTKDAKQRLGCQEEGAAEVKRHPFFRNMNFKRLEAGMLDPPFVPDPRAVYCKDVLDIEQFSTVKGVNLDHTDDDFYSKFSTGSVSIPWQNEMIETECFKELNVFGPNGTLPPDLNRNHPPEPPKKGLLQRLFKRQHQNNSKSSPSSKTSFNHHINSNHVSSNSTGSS
recorded_endpoint: IC50 (µM)

>>> df
                               smiles_input      measured_target  endpoint_unit  assay_value
0  COc1cc(Nc2cc3c(cn2)nc(-c2ccco2)n3C)cc(OC)c1OC  GRK5 (Homo sapiens)             µM         49.7
